# Test system: E. coli MP-9 ATCC25922:tolC
# Experimental protocol: CLSI broth dilution MIC determination
# Format: cell-based
# Test parameters: Escherichia coli, ATCC25922
# Description: MIC data was collected for the novel macrolides that this platform has produced against over 21 unique strains of B. subtilis, E. coli, S. aureus, S. pneumoniae, and H. influenzae, including several multidrug-resistant strains, with a special focus on macrolide resistant mechanisms (vide supra). Azithromycin (Azithro) and Solithromycin (Solithro) were included as a control macrolides in many cases. CLSI standard procedures for broth dilution MIC determination were used. […]
Listing: MIC of selected compounds
# output: bare number, implied unit µg/mL

CC[C@H]1OC(=O)[C@@](C)(F)C(=O)[C@H](C)[C@@H](O[C@@H]2OC(C)CC(N(C)C)C2O)[C@](C)(OC)C[C@@H](C)C(=O)[C@H](C)[C@H]2N(CC#CCn3cc(-c4cnccn4)nn3)C(=O)O[C@]12C (stereo partly drawn) [FSM-22746]	4
CC[C@H]1OC(=O)[C@H](C)C(=O)[C@H](C)[C@@H](O[C@@H]2OC(C)CC(N(C)C)C2O)[C@](C)(OC)C[C@@H](C)C(=O)[C@H](C)[C@H]2N(CC#CCn3cc(-c4cc(F)ccn4)nn3)C(=O)O[C@]12C (stereo partly drawn) [FSM-100566]	2

Continue with the next compound.
In plain terms, CC[C@H]1OC(=O)[C@@](C)(F)C(=O)[C@H](C)[C@@H](O[C@@H]2OC(C)CC(N(C)C)C2O)[C@](C)(OC)C[C@@H](C)C(=O)[C@H](C)[C@H]2N(CC#CCn3cc(-c4ncccn4)nn3)C(=O)O[C@]12C (stereo partly drawn) [FSM-22741] has a documented MIC of 4

Value source: patent US10633407B2
